B1: Hairpin Ribozyme (parent)
chain: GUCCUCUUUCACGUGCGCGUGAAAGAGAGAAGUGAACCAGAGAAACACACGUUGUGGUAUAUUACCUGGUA

variants of: B1; assay: self-cleavage, relative activity (ratio to wild type); higher = more cleavage; co-transcriptional
READOUT: self-cleavage

Some solved cases for reference:
SEQUENCE CHAIN	READOUT	READOUT VALUE
GUCCUCUUUCACGUGCGCGUGAAAGAGAGAAGUGAACCAGAGCAACACACGUUGUGGUAUACUACCUGGUA [A43C U62C]	self-cleavage	0.129
GUCCUCUUUCACGUGCGCGUGAUAGAGAGAAGUGAACCAGAGAAACACACGUUGUGGUAUAUUACCUGCUA [A23U G69C]	self-cleavage	0.325

Lookup: So what's the measured self-cleavage for this one? GUCCUCUUUCACGUGCGCGUGAAAGAGAGAAGUGGACCAGAGAAACACACGUUGUGGUAUAUUACCUGGUG [A35G A71G]
Found: 0.542

Lookup: So what's the measured self-cleavage for this one? GUCCUCUUUCACGUGCGCGUGAAAGAGAUAAGUGAACCAGAGAAACACACGUUGUGGUAUAUUGCCUGGUA [G29U A64G]
Found: 0.0899

Lookup: So what's the measured self-cleavage for this one? GUCCUCUUUAACGUGCGCGUGAAAGAGAGAAGUGAACCAGAGAAAAACACGUUGUGGUAUAUUACCUGGUA [C10A C46A]
Found: 0.109
